# method: Antagonist activity at LPA1 in human lung fibroblasts assessed as inhibition of LPA-induced contraction after 18 hrs by 3D collagen gel contraction assay
pIC50: −log10 of the molar value.
Is pIC50 at least 7? Then y. If not, n.

INSERT INTO assay_data (molecule, category) VALUES
  ('C[C@@H](OC(=O)Nc1c(-c2ccc(-c3ccc(C4(C(=O)O)CC4)cc3)cc2)nnn1C)c1ccccc1', 'y'),
  ('C[C@@H](OC(=O)Nc1c(-c2ccc(-c3ccc(CC(=O)O)cc3)cc2)nnn1C)c1ccccc1', 'n'),
  ('C[C@@H](OC(=O)Nc1c(-c2ccc(C3CCC(CC(=O)O)CC3)cc2)nnn1C)c1ccccc1 (stereo partly drawn)', 'n');

Query: I'd appreciate it if you could say whether C[C@@H](OC(=O)Nc1c(-c2ccc(-c3ccc(C4(C(=O)O)CC4)cc3)cc2)nnn1C)c1cccc(C(F)(F)F)c1 has pIC50 at least equal to 7.
Result: n

Query: Also C[C@@H](OC(=O)Nc1c(-c2ccc(-c3ccc(C4(C(=O)O)CC4)cc3)cc2F)nnn1C)c1ccccc1 ?
Result: y

====

# method: Antagonist activity at LPA1 in human lung fibroblasts assessed as inhibition of LPA-induced contraction after 18 hrs by 3D collagen gel contraction assay
quantity measured: IC50 (nM)
Numbers only here, please. The scale is nM.

Worked cases, answers included:
INSERT INTO measurements (compound, quantity_measured, result_number) VALUES
  ('Cc1noc(-c2ccc(CSCCC(=O)O)cc2)c1NC(=O)OC(C)c1ccccc1Cl (stereo not drawn)', 'IC50', 160),
  ('Cc1nnn(-c2ccc(-c3ccc(C4(C(=O)O)CC4)cc3)cc2)c1NC(=O)O[C@H](C)c1ccccc1', 'IC50', 100);

Query: Consider the compound shown here: Cc1noc(-c2ccc(-c3ccc(CC(=O)O)cc3)cc2)c1NC(=O)O[C@H](C)c1ccccc1 What is its recorded IC50?
Result: 150
